assay: Cytotoxicity against mouse BA/F3 cells; format: cell-based; details: BaF3
pEC50: −log10 of the molar value.
MEASURE: pEC50

Data request: Which value of pEC50 has been reported for FC(F)(F)Oc1ccc(Nc2ccc(NCCN3CCOCC3)nn2)cc1 in the records?
Data returned: < 5.00

Data request: For FC(F)(F)c1ccc(Nc2cc(-c3ccncc3)ncn2)cc1 then?
Data returned: < 5.00

Data request: For FC(F)(F)Oc1ccc(Nc2ncnc3nn(C4CCCCC4)cc23)cc1 then?
Data returned: < 5.00

Data request: For CNC(=O)c1cccc(-c2cc(Nc3ccc(OC(F)(F)F)cc3)ncn2)c1 then?
Data returned: < 5.00

Data request: For OCCn1ncc2c(Nc3ccc(OC(F)(F)F)cc3)ncnc21 then?
Data returned: < 5.00

Data request: For FC(F)(F)Oc1ccc(Nc2ncnc3c2cnn3C2CCCCC2)cc1 then?
Data returned: 5.03

Data request: For CS(=O)(=O)Nc1ccc(-c2cc(Nc3ccc(OC(F)(F)F)cc3)ncn2)cc1 then?
Data returned: 5.66

Data request: For NC(=O)c1cccc(Oc2cc(Nc3ccc(OC(F)(F)F)cc3)ncn2)c1 then?
Data returned: < 5.00

Data request: For CCn1cc2c(Nc3ccc(OC(F)(F)F)cc3)ncnc2n1 then?
Data returned: < 5.00

Data request: For FC(F)(F)Oc1ccc(Nc2cc(NCCCN3CCOCC3)ncn2)cc1 then?
Data returned: < 5.00

Data request: For FC(F)(F)Oc1ccc(Nc2cncc(NCCN3CCOCC3)n2)cc1 then?
Data returned: < 5.00

Data request: For NS(=O)(=O)c1ccc(-c2cc(Nc3ccc(OC(F)(F)F)cc3)ncn2)cc1 then?
Data returned: < 5.00
